Data provenance: patent US20240270821A1

# target system: human glucagon receptor (human) (UniProt P47871)
# Sequence (P47871 26-477): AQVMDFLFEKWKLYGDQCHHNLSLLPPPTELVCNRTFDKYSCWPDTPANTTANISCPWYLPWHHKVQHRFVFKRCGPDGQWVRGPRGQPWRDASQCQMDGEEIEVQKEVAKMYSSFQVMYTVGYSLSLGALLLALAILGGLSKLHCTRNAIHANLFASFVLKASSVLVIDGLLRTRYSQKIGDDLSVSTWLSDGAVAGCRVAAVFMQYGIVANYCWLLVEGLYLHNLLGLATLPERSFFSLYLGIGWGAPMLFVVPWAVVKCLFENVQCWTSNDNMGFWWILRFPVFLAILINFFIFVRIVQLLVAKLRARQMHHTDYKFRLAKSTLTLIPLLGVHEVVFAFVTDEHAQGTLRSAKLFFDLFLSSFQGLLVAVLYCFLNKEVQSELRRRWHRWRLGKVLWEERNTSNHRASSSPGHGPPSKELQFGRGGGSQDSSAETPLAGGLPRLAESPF
# assay method text: cell-based or functional assay
Starred links: 1 amine or outer side, 2 acyl side, 3 side chain; linkers in the order of their positions; H or OH if unused. Non-standard residues stand in square brackets, D forms with d. Groups on a side chain read outwards from the residue. No end group written: not given here. *: point of attachment. C20 diacid = O=C(O)CCCCCCCCCCCCCCCCCCC(=O)*; αMePhe(2-F) = C[C@](N)(Cc1ccccc1F)C(=O)O; γGlu = O=C(O)[C@H](CCC(=O)[*:2])N[*:1]; αMeL = CC(C)C[C@](C)(N)C(=O)O; AEEA = NCCOCCOCC(=O)O; Aib = CC(C)(N)C(=O)O
Listing: cAMP Rel EC50 (1% HSA) of selected binders
value type: cAMP Rel EC50 (1% HSA) (nM)

binder: YXQGTFTSDXSXXLDXKAQXAFIEYLLAGGPSSGAPPPSGSEE (C-terminal amide; lysine acylated with (γ-Glu)2-C18 diacid; synthetic construct; SITE 2: note = 2-Aminoisobutyric Acid; SITE 10: note = 3-(4-Pyridyl)-L-alanine; SITE 12: note = L-ornithine; SITE 13: note = alpha-methyl-leucine; SITE 16: note = L-ornithine; SITE 17: note = Lysine is chemically modified through conjugation of the epsilon-amino group of the Lys) [Example 1068]
value type: cAMP Rel EC50 (1% HSA)
endpoint value: 295
--
binder: YXQGTXTSDXXIXLDXKAAXEFIEXLIEGGPSSGAPPPSGTEE (synthetic construct; SITE 2: note = 2-Aminoisobutyric Acid; SITE 6: note = alpha-methyl-2-fluoro-L-phenylalanine; SITE 10: note = 3-(4-Pyridyl)-L-alanine; SITE 11: note = alpha-methyl-L-serine; SITE 13: note = alpha-methyl-leucine; SITE 16: note = L-ornithine; SITE 17: note = Lysine is chemically mo) [Example 725]
value type: cAMP Rel EC50 (1% HSA)
endpoint value: 244
--
binder: Y[Aib]QGTFTSDYSI[αMeL]LDKQAAK([AEEA-AEEA-γGlu-C20 diacid])QFIEWLIEGGPSSGEPPPGAE-NH2 [Example 319]
value type: cAMP Rel EC50 (1% HSA)
endpoint value: 1650
--
binder: YXQGTXTSDXSILLDKKAQXAFIEYLEEGGPSSGAPPPSGTGE (synthetic construct; SITE 2: note = 2-Aminoisobutyric Acid; SITE 6: note = alpha-methyl-2-fluoro-L-phenylalanine; SITE 10: note = 3-(4-Pyridyl)-L-alanine; SITE 17: note = Lysine is chemically modified through conjugation of the epsilon-amino group of the Lysine side chain with (2-[2-(2-Amino-ethoxy))) [Example 662]
value type: cAMP Rel EC50 (1% HSA)
endpoint value: 561
--
binder: YXQGTFTSDFSXXLDXKAQXAFIEXLLAGGPSSGAPPPEGSEE (non-natural residues, (γGlu)2-C18 diacid lysine acylation, C-terminal amide; synthetic construct; SITE 2: note = 2-Aminoisobutyric Acid; SITE 12: note = L-ornithine; SITE 13: note = alpha-methyl-leucine; SITE 16: note = L-ornithine; SITE 17: note = Lysine is chemically modified through conjugation of the epsilon-amino group of the Lysine side chain with (gamma-Glu)2-CO-(CH2)) [Example 1053]
value type: cAMP Rel EC50 (1% HSA)
endpoint value: 3470
--
binder: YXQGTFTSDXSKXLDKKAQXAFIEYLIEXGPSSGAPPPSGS (synthetic construct; SITE 2: note = 2-Aminoisobutyric Acid; SITE 10: note = 3-(4-Pyridyl)-L-alanine; SITE 13: note = alpha-methyl-leucine; SITE 17: note = Lysine is chemically modified through conjugation of the epsilon-amino group of the Lysine side chain with (2-[2-(2-Amino-ethoxy)-ethoxy]-acetyl)) [Example 801]
value type: cAMP Rel EC50 (1% HSA)
endpoint value: 1200
--
binder: Y[Aib]QGTFTSDYSI[αMeL]LDKQAAK([AEEA-AEEA-γGlu-C20 diacid])QFVEWLLA[Aib]GPSSGAPPPSEG-NH2 [Example 327]
value type: cAMP Rel EC50 (1% HSA)
endpoint value: 1400
--
binder: Y[Aib]QGT[αMePhe(2-F)]TSDYSKLLDEIAQKAFIEYLLEGGPSSGEPPPSEG-NH2 (not fully specified (residue 20)) [Example 303]
value type: cAMP Rel EC50 (1% HSA)
endpoint value: 9950
--
binder: YXQGTXTSDXXIXLDXKAAXEFIEXLIEGGPSSGAPPPSGTGX (synthetic construct; SITE 2: note = 2-Aminoisobutyric Acid; SITE 6: note = alpha-methyl-2-fluoro-L-phenylalanine; SITE 10: note = 3-(4-Pyridyl)-L-alanine; SITE 11: note = alpha-methyl-L-serine; SITE 13: note = alpha-methyl-leucine; SITE 16: note = L-ornithine; SITE 17: note = Lysine is chemically mo) [Example 724]
value type: cAMP Rel EC50 (1% HSA)
endpoint value: 209
--
binder: Y[Aib]QGT[αMePhe(2-F)]TSDYSKLLDKIAQKAFIEYLIEGGPSSGAPPPSEG-NH2 (not fully specified (residue 20)) [Example 339]
value type: cAMP Rel EC50 (1% HSA)
endpoint value: 1510
--
binder: Y[Aib]QGT[αMePhe(2-F)]TSDYSILLDKQAQKAFIEYLLEGGPSSGEPPPSEG-NH2 (not fully specified (residue 20)) [Example 345]
value type: cAMP Rel EC50 (1% HSA)
endpoint value: 3300
--
binder: YXQGTXTSDXXIXLDXKAAXEFIEXLIEGGPSSGEPPPSGSE (synthetic construct; SITE 2: note = 2-Aminoisobutyric Acid; SITE 6: note = alpha-methyl-2-fluoro-L-phenylalanine; SITE 10: note = 3-(4-Pyridyl)-L-alanine; SITE 11: note = alpha-methyl-L-serine; SITE 13: note = alpha-methyl-leucine; SITE 16: note = L-ornithine; SITE 17: note = Lysine is chemically mo) [Example 720]
value type: cAMP Rel EC50 (1% HSA)
endpoint value: 239
--
binder: YXQGTXTSDXXIXLDXKAAXEFIEXLIEGGPSSGAPPPSGSE (synthetic construct; SITE 2: note = 2-Aminoisobutyric Acid; SITE 6: note = alpha-methyl-2-fluoro-L-phenylalanine; SITE 10: note = 3-(4-Pyridyl)-L-alanine; SITE 11: note = alpha-methyl-L-serine; SITE 13: note = alpha-methyl-leucine; SITE 16: note = L-ornithine; SITE 17: note = Lysine is chemically mo) [Example 702]
value type: cAMP Rel EC50 (1% HSA)
endpoint value: 196
--
binder: Y[Aib]QGTFTSDYSI[αMeL]LDKQAAKQFVEWLLA[Aib]GPSSGEPPPSEG (not fully specified (residue 20)) [Example 329]
value type: cAMP Rel EC50 (1% HSA)
endpoint value: 842
--
binder: Y[Aib]QGTFTSDYSI[αMeL]LDKIAAK([AEEA-AEEA-γGlu-C20 diacid])QFVQWLIE[Aib]GPSSGEPPPSEG-NH2 [Example 323]
value type: cAMP Rel EC50 (1% HSA)
endpoint value: 1440
--
binder: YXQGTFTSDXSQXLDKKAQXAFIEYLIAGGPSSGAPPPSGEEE (Aib, 4Pal, αMeL, Me4Pal, acylated K, C-terminal amide; synthetic construct; SITE 2: note = 2-Aminoisobutyric Acid; SITE 10: note = 3-(4-Pyridyl)-L-alanine; SITE 13: note = alpha-methyl-leucine; SITE 17: note = Lysine is chemically modified through conjugation of the epsilon-amino group of the Lysine side chain with D-Glutamic acid-(gamma-Glu)-CO-(CH2)16) [Example 1088]
value type: cAMP Rel EC50 (1% HSA)
endpoint value: 1710
--
binder: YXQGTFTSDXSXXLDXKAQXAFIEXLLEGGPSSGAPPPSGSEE (non-natural residues; lysine acylated with C18 diacid; C-terminal amide; synthetic construct; SITE 2: note = 2-Aminoisobutyric Acid; SITE 10: note = 3-(4-Pyridyl)-L-alanine; SITE 12: note = L-ornithine; SITE 13: note = alpha-methyl-leucine; SITE 16: note = L-ornithine; SITE 17: note = Lysine is chemically modified through conjugation of the epsilon-amino group of the Lys) [Example 1067]
value type: cAMP Rel EC50 (1% HSA)
endpoint value: 1860
--
binder: YXQGTXTSDXSIXLDKKAQXXFIEYLTEGGPSSGEPPPEGSEE (synthetic construct; SITE 2: note = 2-Aminoisobutyric Acid; SITE 6: note = alpha-methyl-2-fluoro-L-phenylalanine; SITE 10: note = 3-(4-Pyridyl)-L-alanine; SITE 13: note = alpha-methyl-leucine; SITE 17: note = Lysine is chemically modified through conjugation of the epsilon-amino group of the Lysine) [Example 652]
value type: cAMP Rel EC50 (1% HSA)
endpoint value: 764
--
binder: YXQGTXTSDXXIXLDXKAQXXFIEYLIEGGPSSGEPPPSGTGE (synthetic construct; SITE 2: note = 2-Aminoisobutyric Acid; SITE 6: note = alpha-methyl-2-fluoro-L-phenylalanine; SITE 10: note = 3-(4-Pyridyl)-L-alanine; SITE 11: note = alpha-methyl-L-serine; SITE 13: note = alpha-methyl-leucine; SITE 16: note = L-ornithine; SITE 17: note = Lysine is chemically mo) [Example 523]
value type: cAMP Rel EC50 (1% HSA)
endpoint value: 234
--
binder: YXQGTXTSDXXIXLDXXAQXEFIEXLIEGGPSSGAPPPSGS (synthetic construct; SITE 2: note = 2-Aminoisobutyric Acid; SITE 6: note = alpha-methyl-2-fluoro-L-phenylalanine; SITE 10: note = 3-(4-Pyridyl)-L-alanine; SITE 11: note = alpha-methyl-L-serine; SITE 13: note = alpha-methyl-leucine; SITE 16: note = L-ornithine; SITE 17: note = Ornithine is chemically) [Example 1211]
value type: cAMP Rel EC50 (1% HSA)
endpoint value: 211
--
binder: YXQGTXTSDXXIXLDXKAAXEFIEXLVEGGPSSGEPPPSGS (synthetic construct; SITE 2: note = 2-Aminoisobutyric Acid; SITE 6: note = alpha-methyl-2-fluoro-L-phenylalanine; SITE 10: note = 3-(4-Pyridyl)-L-alanine; SITE 11: note = alpha-methyl-L-serine; SITE 13: note = alpha-methyl-leucine; SITE 16: note = L-ornithine; SITE 17: note = Lysine is chemically mo) [Example 695]
value type: cAMP Rel EC50 (1% HSA)
endpoint value: 164
